procedure_text: Inhibition of N-type calcium channel activity
Design: species or system Homo sapiens
Listing of entries alongside the reported IC50.
// return numeric value only (unit: µM, not printed)

CC1CCCCN1CCCNC(=O)c1ccc2c(c1)C(=O)N(Cc1ccc(Cl)cc1)C2=O (configuration not stated) :: 54.7

Give its IC50 value. Item: `O=C(NCCN1CCCCC1)c1ccc2c(c1)C(=O)N(Cc1ccc(Cl)cc1)C2=O`
33.4

###

target: Voltage-dependent T-type calcium channel subunit alpha-1G (Homo sapiens, UniProt O43497)
Sequence (O43497 whole entry): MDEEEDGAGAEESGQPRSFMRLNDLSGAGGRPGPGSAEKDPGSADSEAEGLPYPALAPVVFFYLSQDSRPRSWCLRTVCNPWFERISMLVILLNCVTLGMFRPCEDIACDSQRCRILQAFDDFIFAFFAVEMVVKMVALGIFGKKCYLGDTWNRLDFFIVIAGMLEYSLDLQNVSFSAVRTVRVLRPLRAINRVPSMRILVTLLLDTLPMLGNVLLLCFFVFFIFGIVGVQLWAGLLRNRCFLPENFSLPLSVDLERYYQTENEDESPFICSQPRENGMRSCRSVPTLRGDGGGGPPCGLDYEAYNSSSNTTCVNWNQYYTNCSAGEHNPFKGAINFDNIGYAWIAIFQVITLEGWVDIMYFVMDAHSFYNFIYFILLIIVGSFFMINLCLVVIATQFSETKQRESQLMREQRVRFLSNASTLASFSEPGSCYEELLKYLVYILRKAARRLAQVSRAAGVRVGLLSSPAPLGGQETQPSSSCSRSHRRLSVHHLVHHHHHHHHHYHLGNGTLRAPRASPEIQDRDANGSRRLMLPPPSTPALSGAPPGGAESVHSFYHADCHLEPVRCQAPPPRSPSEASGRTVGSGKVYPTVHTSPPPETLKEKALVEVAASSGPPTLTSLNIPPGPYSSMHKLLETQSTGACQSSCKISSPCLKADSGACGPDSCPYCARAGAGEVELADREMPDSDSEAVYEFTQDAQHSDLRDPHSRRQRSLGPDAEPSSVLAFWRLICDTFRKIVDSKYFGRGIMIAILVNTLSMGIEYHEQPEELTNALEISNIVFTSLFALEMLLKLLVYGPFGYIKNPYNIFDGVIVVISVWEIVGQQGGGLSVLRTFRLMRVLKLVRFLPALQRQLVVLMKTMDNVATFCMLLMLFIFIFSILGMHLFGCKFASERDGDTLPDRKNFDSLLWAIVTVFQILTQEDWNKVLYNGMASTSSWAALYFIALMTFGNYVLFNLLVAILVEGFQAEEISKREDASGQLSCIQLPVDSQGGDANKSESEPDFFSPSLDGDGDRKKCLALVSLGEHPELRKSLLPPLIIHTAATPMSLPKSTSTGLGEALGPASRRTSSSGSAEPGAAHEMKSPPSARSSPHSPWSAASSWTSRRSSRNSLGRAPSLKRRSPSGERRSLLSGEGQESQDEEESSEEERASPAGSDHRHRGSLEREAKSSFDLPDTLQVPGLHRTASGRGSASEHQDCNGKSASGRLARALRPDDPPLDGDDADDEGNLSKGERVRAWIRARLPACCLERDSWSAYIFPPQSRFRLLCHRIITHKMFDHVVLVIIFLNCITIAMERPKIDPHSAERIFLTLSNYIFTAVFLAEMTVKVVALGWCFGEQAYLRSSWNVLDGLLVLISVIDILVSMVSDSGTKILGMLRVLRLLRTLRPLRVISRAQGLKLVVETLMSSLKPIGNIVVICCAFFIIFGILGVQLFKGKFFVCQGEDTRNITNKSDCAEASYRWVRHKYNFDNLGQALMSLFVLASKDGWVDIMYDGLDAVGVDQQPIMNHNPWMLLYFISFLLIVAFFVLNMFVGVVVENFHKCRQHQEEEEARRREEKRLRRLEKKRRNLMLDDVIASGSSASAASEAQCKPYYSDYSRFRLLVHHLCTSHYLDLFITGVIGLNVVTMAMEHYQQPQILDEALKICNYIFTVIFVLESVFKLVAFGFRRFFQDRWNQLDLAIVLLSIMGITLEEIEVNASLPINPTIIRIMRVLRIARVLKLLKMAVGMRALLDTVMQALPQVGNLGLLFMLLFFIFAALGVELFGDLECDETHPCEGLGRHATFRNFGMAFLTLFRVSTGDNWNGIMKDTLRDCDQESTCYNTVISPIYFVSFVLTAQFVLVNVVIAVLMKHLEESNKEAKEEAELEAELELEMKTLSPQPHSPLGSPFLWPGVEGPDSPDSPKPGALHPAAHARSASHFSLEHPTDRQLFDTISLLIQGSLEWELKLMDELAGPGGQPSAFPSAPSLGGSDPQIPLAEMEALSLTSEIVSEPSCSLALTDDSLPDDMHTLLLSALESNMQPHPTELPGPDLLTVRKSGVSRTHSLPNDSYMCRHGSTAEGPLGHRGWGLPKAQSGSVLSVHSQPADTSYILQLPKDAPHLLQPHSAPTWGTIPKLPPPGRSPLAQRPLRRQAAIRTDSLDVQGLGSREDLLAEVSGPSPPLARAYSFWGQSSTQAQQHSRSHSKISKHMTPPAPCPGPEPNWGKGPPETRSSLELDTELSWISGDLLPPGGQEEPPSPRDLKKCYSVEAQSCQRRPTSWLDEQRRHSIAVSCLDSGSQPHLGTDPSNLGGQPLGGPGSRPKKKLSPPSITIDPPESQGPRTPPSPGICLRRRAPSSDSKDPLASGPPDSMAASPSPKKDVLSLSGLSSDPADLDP
procedure_text: Inhibition of T-type calcium channel Cav3.1 expressed in HEK293 cells co-expressing alpha1G subunit and Kir2.1 potassium channel by patch-clamp assay
Entries and their IC50
Write down the numeric answer in µM and omit the unit.

As a guide, the following entries are already answered.
COc1ccc(CN2C(=O)c3ccc(C(=O)NCCN4CCCCC4)cc3C2=O)cc1 :: 5.25
Cc1ccc(CN2C(=O)c3ccc(C(=O)NCCN4CCCCC4)cc3C2=O)cc1 :: 5.82
COc1cccc(CN2C(=O)c3ccc(C(=O)NCCN4CCCCC4)cc3C2=O)c1 :: 14.1
O=C(NCCN1CCCCC1)c1ccc2c(c1)C(=O)N(Cc1ccccc1)C2=O :: 22.8
O=C(NCCN1CCCCC1)c1ccc2c(c1)C(=O)N(Cc1ccccc1Cl)C2=O :: 5.82
O=C(NCCN1CCCCC1)c1ccc2c(c1)C(=O)N(Cc1ccc(F)cc1)C2=O :: 8.88

Need IC50, item `O=C(NCCCN1CCCC1)c1ccc2c(c1)C(=O)N(Cc1ccc(Cl)cc1)C2=O`
1.62

Name the recorded IC50 for `O=C(NCCN1CCCCC1)c1ccc2c(c1)C(=O)N(Cc1cccc(Cl)c1)C2=O` .
4.09

Would you kindly share the measured IC50 for Cc1ccc(CN2C(=O)c3ccc(C(=O)NCCCN4CCCCC4C)cc3C2=O)cc1 (stereo not given) ?
3.53

Look at this compound and give its reported IC50. `O=C(NCCN1CCCCC1)c1ccc2c(c1)C(=O)N(Cc1ccccc1F)C2=O`
14.9

###

procedure_text: Cytotoxicity against HEK293 cells by MTT assay
Assay type: cell-based
recorded_conditions: human
assay_readout: CC50

O=C(NCCN1CCCCC1)c1ccc2c(c1)C(=O)N(Cc1ccc(Cl)cc1)C2=O :: > 100 µM

Consider the compound shown here: CC1CCCCN1CCCNC(=O)c1ccc2c(c1)C(=O)N(Cc1ccc(Cl)cc1)C2=O (configuration not stated) What is its recorded CC50?
> 100 µM
